The reported numbers originate from patent US20020032316A1.

assay: Cocaine LD50 and time-to-death in immunized and naive mice; conditions: BALB/c, mouse, in vivo, ip
OBSERVED PROPERTY: LD50 (mg/kg)
Report the value in mg/kg with no unit label.

Enquiry: Which LD50 value belongs to COC(=O)[C@H]1[C@@H](OC(=O)c2ccccc2)C[C@@H]2CC[C@H]1N2C ?
Return: 20

###

assay: Cocaine LD50 and time-to-death in immunized and naive mice; conditions: BALB/c, mouse, in vivo, iv
OBSERVED PROPERTY: LD50 (mg/kg)
Report the value in mg/kg with no unit label.

Enquiry: Which LD50 value belongs to COC(=O)[C@H]1[C@@H](OC(=O)c2ccccc2)C[C@@H]2CC[C@H]1N2C [cocaine] ?
Return: 3
